Target: RORγ (UniProt P51449)
Test: RORγ Gal4 Reporter Gene Assay in 293T cells (firefly and renilla luciferase)
Assay type: cell-based, human
Conditions: third value of the cell; Gal4 reporter gene assay in 293T cells, renilla normalised luciferase
QUANTITY: pIC50 (REN)

[[record]]
molecule = "COC(C)(c1cc(-c2cc(C(=O)NC3CCOCC3)c(C)n2CC2CCCCC2)cc(C(C)(C)C)c1)C(F)(F)F (stereo not drawn) [17/186]"
value_observed = 7.1

[[record]]
molecule = "COC1(c2cc(-c3cc(C(=O)NC4CCOCC4)c(C)n3CC3CCCCC3)ccc2S(=O)(=O)NC(C)(C)C)CC1 [17/164]"
value_observed = 6.5

[[record]]
molecule = "Cc1c(C(=O)NC2COC2)cc(-c2cc(C(C)(C)C)cc(C(C)(C)C)c2)n1S(=O)(=O)N1CCC2(CCCC2)C1 [7/6]"
value_observed = 6.5

[[record]]
molecule = "Cc1c(C(=O)NC2CCOCC2)cc(-c2ccc(S(=O)(=O)NC(C)(C)C)c(C(F)(F)F)c2)n1S(=O)(=O)C1CCCCC1 [17/218]"
value_observed = 7.3

[[record]]
molecule = "Cc1c(C(=O)NCCN2CCOCC2)cc(-c2cc(C(C)(C)O)cc(C3(C)CC3)c2)n1CC1CCCCC1 [17/316]"
value_observed = 6.3

[[record]]
molecule = "Cc1c(C(=O)NC2COC2)cc(-c2cnc(NCC(C)(C)C)c(C(F)(F)F)c2)n1CC1CCCCC1 [9/12]"
value_observed = 6.5

[[record]]
molecule = "Cc1c(C(=O)NCC2(O)CCOCC2)cc(-c2cc(C(C)(C)C)c3c(c2)C(C)(C)C(=O)N3C)n1CC1CCCCC1 [17/48]"
value_observed = 7.5

[[record]]
molecule = "CCn1cc(-c2ccc(-c3cc(C(=O)NC4CCOCC4)c(C)n3CC3CCCCC3)cc2C(C)(C)C)cn1 [26/3]"
value_observed = 6.8

[[record]]
molecule = "Cc1c(C(=O)NCC(C)(C)O)cc(-c2cc(C(C)(C)C)cc(C(C)(C)C)c2)n1S(=O)(=O)N1CCCCC1 [7/7]"
value_observed = 6.6

[[record]]
molecule = "Cc1c(C(=O)NC2CCS(=O)(=O)CC2)cc(-c2cc(C(C)(C)O)cc(C3(C)CC3)c2)n1CC1CCCCC1 [17/321]"
value_observed = 7.3

[[record]]
molecule = "Cc1c(C(=O)NCC(C)(C)C(=O)O)cc(-c2ccc(S(=O)(=O)NC(C)(C)C)c(C(C)(C)C)c2)n1CC1CCCCC1 [1/129]"
value_observed = 7.3

[[record]]
molecule = "Cc1c(C(=O)NC2CCOCC2)cc(-c2ccc(CN3CCOCC3(C)C)c(C(F)(F)F)c2)n1CC1CCCCC1 [Example 34]"
value_observed = 7.1

[[record]]
molecule = "Cc1c(C(=O)NC2COC2)cc(-c2cnc(OCC(C)(C)C)c(C(F)(F)F)c2)n1CC1CCCCC1 [9/13]"
value_observed = 6.1

[[record]]
molecule = "Cc1c(C(=O)N[C@H]2C[C@H](C(=O)O)C2)cc(-c2cc(C(C)(C)C)cc(C3(C)CC3)c2)n1CC1CCCCC1 [17/326]"
value_observed = 7.9

[[record]]
molecule = "Cc1c(C(=O)NC2CCOCC2)cc(-c2ccc(S(=O)(=O)N3CCCCC3(C)C)c(C(F)(F)F)c2)n1CC1CCCCC1 [17/69]"
value_observed = 7.4

